# Type: in vivo, human
# reported-conditions: human, plasma, oral, 75 mg

- molecule-smiles: "COc1ccc2c(c1)[C@@H]1C[C@]1(C(=O)N1[C@@H]3CC[C@H]1CN(C)C3)Cn1c-2c(C2CCCCC2)c2ccc(C(=O)NS(=O)(=O)N(C)C)cc21"
  units-label: "ng/mL"
  Cmax: 3140
